# assay_system: UniProt:Q8TDU6
# Sequence (Q8TDU6 whole entry): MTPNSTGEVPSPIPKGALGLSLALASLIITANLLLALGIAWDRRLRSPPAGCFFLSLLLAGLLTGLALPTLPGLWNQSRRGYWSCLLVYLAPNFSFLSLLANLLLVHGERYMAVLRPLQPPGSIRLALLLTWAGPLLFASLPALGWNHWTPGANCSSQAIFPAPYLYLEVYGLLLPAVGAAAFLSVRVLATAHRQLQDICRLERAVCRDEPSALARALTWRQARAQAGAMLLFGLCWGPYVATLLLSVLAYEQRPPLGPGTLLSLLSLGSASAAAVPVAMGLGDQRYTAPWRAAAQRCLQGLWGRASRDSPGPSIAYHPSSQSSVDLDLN
# protocol_notes: Human TGR5 cAMP production assay
# assay_context: human TGR5, luminescent cAMP assay; coded A-D; read-out: Human TGR5 Lum. cAMP Activity (EC50)
# Description: Human TGR5 cAMP Production Assay We evaluated the Compounds of the present invention for their ability to induce cAMP production using CHO-K1 cells overexpressing the human TGR5 receptor. […] Test compounds were serially diluted (half-log dilutions) in DMSO and then further diluted 1:50 in PBS, 10 mM HEPES buffer. […] Luminescent signal was then detected using the Viewlux instrument (Perkin-Elmer, Waltham, Mass.). […]
# reported EC50; entries follow

- molecule: "Cc1noc(C)c1-c1cccc(CNS(=O)(=O)c2ccccc2C(F)(F)F)c1 [Compound 2AC]"
  EC50: "1000 to 30000 nM"
- molecule: "COc1cnccc1-c1ccnc(CNS(=O)(=O)c2ccccc2C(F)(F)F)c1 [Compound 1BT]"
  EC50: "1000 to 30000 nM"
- molecule: "Cc1cnccc1-c1cccc(CCN(CCCNC(=O)NCS(=O)(=O)O)S(=O)(=O)c2cccc(Cl)c2C)c1 [Compound 29AD]"
  EC50: "100 to 999 nM"
- molecule: "Cc1cnccc1-c1cccc([C@H](C)N(CCCCC(=O)NCCS(=O)(=O)O)S(=O)(=O)c2cccc(Cl)c2C)c1 [Compound 20AH]"
  EC50: "< 100 nM"
- molecule: "Cc1cnccc1-c1cccc(C2(NS(=O)(=O)c3cccc(Cl)c3C)COC2)c1 [Compound 7AC]"
  EC50: "< 100 nM"
- molecule: "CC(C)(NS(=O)(=O)c1ccccc1C(F)(F)F)c1cccc(-c2ccnnc2)c1 [Compound 1BL]"
  EC50: "100 to 999 nM"
- molecule: "Cc1cnccc1-c1cccc([C@H](C)N(CCCCO)S(=O)(=O)c2cccc(Cl)c2C)c1 [Compound 39]"
  EC50: "< 100 nM"
- molecule: "COC(=O)CS(=O)(=O)NCCOCCNC(=O)CCCCN([C@@H](C)c1cccc(-c2ccncc2C)c1)S(=O)(=O)c1cccc(Cl)c1C [Compound 26AC]"
  EC50: "< 100 nM"
- molecule: "Cc1cnccc1-c1cccc([C@H](C)NS(=O)(=O)c2cccc(Cl)c2C)c1 [Compound 7]"
  EC50: "< 100 nM"
- molecule: "CC(C)(NS(=O)(=O)c1ccccc1C(F)(F)F)c1cccc(-c2ccc3nccn3c2)c1 [Compound 5AJ]"
  EC50: "100 to 999 nM"
- molecule: "Cc1cnccc1-c1cccc([C@H](C)N(CCCC(=O)NCCCS(=O)(=O)O)S(=O)(=O)c2cccc(Cl)c2C)c1 [Compound 20AL]"
  EC50: "< 100 nM"
- molecule: "Cc1cnccc1-c1cccc([C@H](C)N(CCCC(=O)NCCNC(=O)CS(=O)(=O)O)S(=O)(=O)c2ccccc2C(F)(F)F)c1 [Compound 31AE]"
  EC50: "< 100 nM"
- molecule: "COc1cccc(S(=O)(=O)N2CCN(C(=O)CS(=O)(=O)O)CC2c2cccc(-c3ccncc3C)c2)c1 (stereo not drawn) [Compound 49AB]"
  EC50: "100 to 999 nM"
- molecule: "CCc1cnccc1-c1cccc(C2CN(C(=O)CN(C)CC(=O)O)CCN2S(=O)(=O)c2cccc(Cl)c2C)c1 (stereo not drawn) [Compound 46AC]"
  EC50: "< 100 nM"
- molecule: "CCc1cnccc1-c1cccc(C2CN(C(=O)CS(=O)(=O)O)CCN2S(=O)(=O)c2cccc(Cl)c2C)c1 (stereo not drawn) [Compound 49]"
  EC50: "< 100 nM"

Sourced from patent US11236055B2
